- Test system: ragweed (common ragweed, Ambrosia elatior)
- testDetails: Test A preemergence, ragweed
- Format: in vivo
- conditionSummary: 500 g ai/ha, 0 to 100 scale (0 no effect, 100 complete control)

compound	Plant response rating, Ragweed
O=C1NCC(c2cccc(OCC3OCCO3)c2)C1C(=O)Nc1cccc(F)c1F (stereo not shown)	0
O=C1NCC(c2cccc(Cn3cncn3)c2)C1C(=O)Nc1cccc(F)c1F (stereo not shown)	0
O=C1NCC(c2cccc(OCC3OCCO3)c2)C1C(=O)Nc1ccccc1F (stereo not shown)	0
O=C1NCC(c2cccc(Oc3ccc(F)cn3)c2)C1C(=O)Nc1cccc(F)c1F (single isomer, unassigned)	80
O=C1NCC(c2ccccc2Cn2ccc(C(F)(F)F)n2)C1C(=O)Nc1cccc(F)c1F (stereo not shown)	0
CN1CC(c2cccc(Oc3ccc(F)cc3)c2)C(C(=O)Nc2ccccc2F)C1=O (single isomer, unassigned)	30
O=C1NCC(c2cccc(Oc3ncc(F)cn3)c2)C1C(=O)Nc1cccc(F)c1F (single isomer, unassigned)	80

Origin of values: patent US10405547B2
